system: K562 (CML); assay: Cell killing assay (cell proliferation, Cell Titer-Glo); type: cell-based; settings: 72 hrs
pIC50: −log10 of the molar value.
TEST READOUT: pIC50

Which pIC50 value is on record for Conjugate F: anti-CD74 IgG containing residue 30 conjugated to a PEG4-MMAE precursor (conjugate) VH: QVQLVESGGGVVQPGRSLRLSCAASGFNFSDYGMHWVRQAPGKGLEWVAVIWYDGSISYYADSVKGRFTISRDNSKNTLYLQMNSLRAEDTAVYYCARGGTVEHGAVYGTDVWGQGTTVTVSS VL: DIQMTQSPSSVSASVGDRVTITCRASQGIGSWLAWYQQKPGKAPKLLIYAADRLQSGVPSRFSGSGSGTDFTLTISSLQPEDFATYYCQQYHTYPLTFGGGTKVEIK ?
< 7.30
